Recorded logP, one value per entry.
# TEST: Partition coefficient, log P of the compound
# Format: physicochemical
# CONDITION NOTES: octanol/water
Note: the reply should be a number with no unit written.

Sample records with logP:
CCN(CC)CCN1C(=O)c2c(c3sccc3c3ccoc23)C1=O | 3
CCN(CC)CCN1C(=O)C(c2cc3ccccc3[nH]2)=C(c2cccs2)C1=O | 3.8

Turning now to a further record.
The compound CN(C)CCN1C(=O)c2cccc3cc(N)cc(c23)C1=O [AMONAFIDE] showed logP equal to 1.6

###

# TEST: Partition coefficient, log P of the compound
# Type: physicochemical
# CONDITION NOTES: octanol/water
logP by entry:
Just the number, please, no unit attached.

Record summary for CCN(CC)CCN1C(=O)c2c(c3sccc3c3ccsc23)C1=O : reported logP = 3.8

logP reported for this compound CCN(CC)CCN1C(=O)C(c2cccs2)=C(c2cccn2C)C1=O : 1.7

###

# TEST: Binding affinity to supercoiled pRYG DNA by DNA intercalating assay
Activity calls are given as the source filed them. No cut-off for these calls is given here.
// one of YES (active), NO (inactive), no free text

O=C1c2cccc3cccc(c23)C(=O)N1CCNCCCNCCN1C(=O)c2cccc3cccc(c23)C1=O | YES
CCN(CC)CCN1C(=O)c2c(c3sccc3c3ccsc23)C1=O | NO
CCN(CC)CCN1C(=O)C(c2cccs2)=C(c2cccn2C)C1=O | NO
CCN(CC)CCN1C(=O)C(c2cccs2)=C(c2cccs2)C1=O | NO

Query: Hello, I am checking results. What call was entered for CCN(CC)CCN1C(=O)c2c(c3c(ccn3C)c3ccsc23)C1=O ?
Reply: NO

###

# TEST: Partition coefficient, log P of the compound
# Type: physicochemical
# CONDITION NOTES: octanol/water
Recorded logP, one value per entry.
// response body must contain only the number

Form field logP, entry CCN(CC)CCN1C(=O)c2c(c3c(ccn3C)c3ccsc23)C1=O : 2.5

For CCN(CC)CCN1C(=O)C(c2cccs2)=C(c2c[nH]c3ccccc23)C1=O the compound record lists logP as 3.8

What the record says about CCN(CC)CCN1C(=O)c2c(c3c(ccn3C)c3ccoc23)C1=O : logP is 1.7

###

logP: recorded values
# TEST: Partition coefficient, log P of the compound
# Type: physicochemical
# CONDITION NOTES: octanol/water
Output spec: single numeric token, no unit.

Solved entries (count: 4):
CCN(CC)CCN1C(=O)c2c(c3ccccc3c3ccccc23)C1=O | 4.1
CCN(CC)CCN1C(=O)C(c2ccco2)=C(c2cccs2)C1=O | 2.1
CCN(CC)CCN1C(=O)C(c2cccs2)=C(c2cccs2)C1=O | 2.9
CCN(CC)CCN1C(=O)C(c2c[nH]c3ccccc23)=C(c2cccn2C)C1=O | 2.9

Notebook: CCN(CC)CCN1C(=O)c2c(c3sccc3c3ccccc23)C1=O , logP read as 3.9

# logP (compound: CCN(CC)CCN1C(=O)C(c2ccco2)=C(c2cccn2C)C1=O ) is 0.9
